Target: Substance-K receptor (Homo sapiens)
Sequence (P21452 whole entry): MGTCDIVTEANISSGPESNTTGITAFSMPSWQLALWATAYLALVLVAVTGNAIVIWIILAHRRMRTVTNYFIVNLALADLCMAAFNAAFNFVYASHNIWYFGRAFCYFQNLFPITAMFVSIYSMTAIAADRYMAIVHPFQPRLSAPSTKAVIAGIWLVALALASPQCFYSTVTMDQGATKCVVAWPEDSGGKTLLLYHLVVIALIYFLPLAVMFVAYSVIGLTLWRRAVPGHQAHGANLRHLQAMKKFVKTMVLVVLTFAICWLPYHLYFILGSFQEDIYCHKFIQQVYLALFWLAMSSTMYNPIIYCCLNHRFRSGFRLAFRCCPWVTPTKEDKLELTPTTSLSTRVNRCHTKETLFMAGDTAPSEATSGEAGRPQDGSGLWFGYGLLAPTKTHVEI
Test: Binding affinity test against Neurokinin 2 (NK2) receptor
Parameter Measured: Ki (µM)

(a) CO/N=C(\COCc1cc(F)cc(C(F)(F)F)c1)C(CCN1CCC(O)(c2ccccc2)CC1)c1ccc(Cl)c(Cl)c1 (stereo not given)
(b) CO/N=C(\CNC(=O)c1cc(C(F)(F)F)cc(C(F)(F)F)c1)C(CCN1CCC(O)(c2ccccc2)CC1)c1ccc(Cl)c(Cl)c1 (stereo not given)
Request: Which numeric Ki is bigger, that of a or that of b ? Write down the label attached to your selection.
Result: a
